Recorded values, source paper PMC6152040.

- System: A549 lung adenocarcinoma cells
- measurement description: MTS cytotoxicity assay, A549
- Assay type: cell-based
- measurement context: Homo sapiens, MTS method, 72 h incubation
recorded metric: IC50 (µM)
Give just the numeric value; µM need not be written.

In: I am curious: what IC50 value has been reported for C=C[C@H]1C[C@@H](C)C[C@@H](C)[C@@H]1c1c(O)ccn(O)c1=O [Compound 7 and 8, pyridoxatin rotamers A (7) and B (8)] ?
Out: 0.44

In: Also C[C@@]1(CO)[C@H](O)CC[C@@]2(C)[C@H]1CC[C@H]1C[C@@H]3C[C@@]12CC[C@]3(O)CO [Compound 4, aphidicolin] ?
Out: 16.2

In: Also CC12COC(c3ccccc3)OC1CCC1(C)C2CCC2CC3CC21CCC3(O)CO (stereo not drawn) [Compound 1, Inflatin G] ?
Out: 68.7

In: Also CC(=O)O[C@H]1C(=O)[C@@]2(C)[C@H]([C@H](OC(=O)c3ccccc3)[C@]3(O)C[C@H](OC(=O)[C@H](O)[C@@H](NC(=O)c4ccccc4)c4ccccc4)C(C)=C1C3(C)C)[C@]1(OC(C)=O)CO[C@@H]1C[C@@H]2O [paclitaxel, reference compound] ?
Out: 0.03

In: Also CC(=O)OC[C@@]1(O)CC[C@]23C[C@H]1C[C@@H]2CC[C@H]1[C@](C)(CO)[C@H](O)CC[C@@]13C [Compound 5, aphidicolin-17-monoacetate] ?
Out: 5.2
